Reference for the values: patent US20120177664A1

Consider the following binders; for each one, report its Kd.
Target: T1, A beta oligomer (synthetic A beta1-40, HCl form, 0.1 mg/ml in PBS, incubated at 37 degrees C for one hour) (UniProt P05067 672-711)
T1 construct: domain: A beta1-40; non-fibrous multimer of the peptide; also called A beta 1-40 oligomer
Assay: SPR (Biacore 3000)
One number for each entry, in nM.

Known results for binders:
Challenge: Reported Kd, binder IR-128 antibody (antibody, V domains shown, mouse IgG2a) VH: DVQLVESGGGLVQPGGSRKLSCAASGFTFSSFGMHWVRQAPEKGLEWVAYISSGSSTIYYADTVKGRFTISRDNPKNTLFLQMTSLRSEDTAMYYCAREGHFDYWGQGTTLTVSS VL: DVVMTQTPLSLPVSLGDQASISCRSSQSLVHSNGNTYLHWYLQKPGQSPKLLIYKVSNRFSGVPDRFSGSGSGTDFTLKISRVEAEDLGVYFCSQSTHVPPTFGGGTKLEIK : ____
Response given: 1070

Challenge: Same thing, different binder: IR-121 antibody (antibody, mouse IgG2b, V domains shown, mouse IgG2b) VH: DVQLVESGGGLVQPGGSRKLSCAASGFTFSSFGMHWVRQAPEKGLEWVAYISSGSSTIYYADTVKGRFTISRDNPKNTLFLQMTSLRSEDTAMYYCATYGIYAMDYWGQGTSVTVSS VL: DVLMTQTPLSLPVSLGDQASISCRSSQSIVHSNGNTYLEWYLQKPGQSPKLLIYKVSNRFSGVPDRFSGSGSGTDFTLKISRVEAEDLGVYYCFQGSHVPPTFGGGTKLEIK
Response given: 84.2

Challenge: Please do the same for IR-132 antibody (antibody, mouse IgG2b, V domains shown, mouse IgG2b) VH: DVQLVESGGGLVQPGGSRKLSCAASGFTFSSFGMHWVRQAPEKGLEWVAYISSGSSTIYYADTVKGRFTISRDNPKNTLFLQMTSLRSEDTAMYYCARDGNYVGWFAYWGQGTLVTVSA VL: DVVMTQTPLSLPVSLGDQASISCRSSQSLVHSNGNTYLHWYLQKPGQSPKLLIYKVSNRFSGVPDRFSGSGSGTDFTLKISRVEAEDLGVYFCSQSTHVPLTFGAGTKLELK as well.
Response given: 22.1

Please examine the following record next.
Challenge: Look at this binder and give its reported Kd. IR-125 antibody (antibody, mouse IgG2b, V domains shown, mouse IgG2b) VH: DVQLVESGGGLVQPGGSRKLSCAASGFTFSSFGMHWVRQAPEKGLEWVAYISSGSSTIYYADTVKGRFTISRDNPKNTLFLQMTSLRSEDTAMYYCARAGGYSLSYAMDYWGQGTSVTVSS VL: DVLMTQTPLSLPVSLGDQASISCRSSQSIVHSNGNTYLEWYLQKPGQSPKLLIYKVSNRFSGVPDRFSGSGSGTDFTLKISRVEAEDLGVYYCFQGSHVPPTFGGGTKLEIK
Response given: 78.8
